Method notes: in vitro
Set-up: species or system HB2, HEK293
Test context: human, ccd841 cells
So basically, if viability at 48 h, 10 µM comes in under 80% it's 1 (yes), and if it's 80% or more it's 0 (no).

These solved cases illustrate the format of a correct answer.
Cc1nnc(NC(=O)CCl)s1 [PCM-0102211] = 0 (no)
CCc1nnc(NC(=O)CCl)s1 [PCM-0102166] = 0 (no)
NC(=O)c1c(NC(=O)CCl)sc2c1CCC2 [PCM-0102164] = 1 (yes)
O=C(CCl)NCC12CC3CC(CC(Br)(C3)C1)C2 [PCM-0102819] = 0 (no)
COC(=O)c1c(NC(=O)CCl)sc2c1CCC2 [PCM-0102542] = 1 (yes)
C=CC(=O)N1CCC(n2nnc3c2CCCC3)CC1 [PCM-0102437] = 0 (no)
O=C(CCl)Nc1nncs1 [PCM-0102427] = 0 (no)
C=CC(=O)Nc1cc(CC(C)(C)C)nn1C [PCM-0102686] = 0 (no)

// query Lab log: compare recorded viability at 48 h, 10 µM with 80%; is it strictly lower for CN(C(=O)CCl)C1(C#N)CCCCC1 [PCM-0102916] ?
// result 1 (yes)

// query Lab log: compare recorded viability at 48 h, 10 µM with 80%; is it strictly lower for O=C(CCl)Nc1ccc(Br)cn1 [PCM-0102227] ?
// result 1 (yes)

// query Lab log: compare recorded viability at 48 h, 10 µM with 80%; is it strictly lower for O=C(CCl)Nc1cccc(-c2nnc3n2CCCCC3)c1 [PCM-0102181] ?
// result 1 (yes)

* * *

Tested system: PCAF (Homo sapiens)
Construct: gene KAT2B
Sequence (Q92831 whole entry): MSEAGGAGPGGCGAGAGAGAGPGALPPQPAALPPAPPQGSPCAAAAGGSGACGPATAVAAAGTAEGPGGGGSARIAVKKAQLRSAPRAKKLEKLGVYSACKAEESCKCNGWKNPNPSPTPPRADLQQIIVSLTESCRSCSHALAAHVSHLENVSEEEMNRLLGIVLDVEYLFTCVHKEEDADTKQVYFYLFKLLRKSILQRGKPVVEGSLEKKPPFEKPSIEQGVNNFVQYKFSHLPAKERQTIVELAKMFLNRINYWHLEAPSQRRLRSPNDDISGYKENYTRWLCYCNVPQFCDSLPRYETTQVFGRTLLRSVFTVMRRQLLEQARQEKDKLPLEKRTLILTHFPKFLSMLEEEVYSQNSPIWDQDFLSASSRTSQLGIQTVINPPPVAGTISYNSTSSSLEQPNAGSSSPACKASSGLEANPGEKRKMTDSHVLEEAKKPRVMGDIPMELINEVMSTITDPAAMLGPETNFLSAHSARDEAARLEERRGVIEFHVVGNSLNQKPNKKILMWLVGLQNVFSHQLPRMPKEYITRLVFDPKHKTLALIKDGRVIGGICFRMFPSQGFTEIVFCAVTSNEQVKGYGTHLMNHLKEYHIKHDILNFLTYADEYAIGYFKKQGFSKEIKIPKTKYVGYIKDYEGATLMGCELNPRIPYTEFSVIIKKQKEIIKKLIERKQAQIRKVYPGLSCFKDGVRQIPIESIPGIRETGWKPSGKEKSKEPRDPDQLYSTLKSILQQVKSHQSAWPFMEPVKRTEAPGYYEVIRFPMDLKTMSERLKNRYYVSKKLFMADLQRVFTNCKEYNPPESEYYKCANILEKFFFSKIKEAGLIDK
Parameters: Intact protein LC/MS covalent labelling, fragments in pools of five, 200 uM each, 4 °C
Test context: 24 h, 4 °C, pool of five; 200 µM; covalent
Readout name: PCAF
Reply briefly: the number, and no unit.

See these solved cases before continuing.
O=C(CCl)N1CCOC2CCCCC21 (centres unmarked) [PCM-0102940] = 0
CC(C)C(C#N)N1CCN(C(=O)CCl)CC1 (centres unmarked) [PCM-0102263] = 0
O=C(CCl)NC(=O)c1cccc2ccccc12 [PCM-0102694] = 0
C=CC(=O)Nc1cccc(C(F)(F)F)c1 [PCM-0102573] = 0

Lab entry: PCAF (Homo sapiens) assay, molecule Cc1nc(NC(=O)CCl)sc1C [PCM-0102124] , PCAF = 0

Lab entry: PCAF (Homo sapiens) assay, molecule CC(NC(=O)CCl)c1ccccc1 (centres unmarked) [PCM-0102128] , PCAF = 0

Lab entry: PCAF (Homo sapiens) assay, molecule C=CC(=O)Nc1ccc(Cl)cc1 [PCM-0102537] , PCAF = 0

Lab entry: PCAF (Homo sapiens) assay, molecule O=C(CCl)Nc1cccc(I)c1 [PCM-0102154] , PCAF = 0

Lab entry: PCAF (Homo sapiens) assay, molecule O=C(CCl)NCc1ccc(F)cc1 [PCM-0102192] , PCAF = 0

* * *

Tested system: NUDT7 (Homo sapiens)
Construct: residues 14-235, E. coli, pNIC28-Bsa4, N-terminal His6 tag removed by TEV, construct 26672 Da
Sequence (P0C024 14-235): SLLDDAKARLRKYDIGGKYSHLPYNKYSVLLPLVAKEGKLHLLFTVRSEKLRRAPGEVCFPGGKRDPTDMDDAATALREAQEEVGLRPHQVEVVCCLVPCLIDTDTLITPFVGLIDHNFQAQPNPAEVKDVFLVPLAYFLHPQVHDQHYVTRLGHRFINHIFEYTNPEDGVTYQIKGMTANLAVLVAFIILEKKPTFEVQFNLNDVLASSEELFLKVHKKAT
Set-up: Intact protein LC/MS covalent labelling, fragments in pools of five, 200 uM each, 4 °C
Test context: 24 h, 4 °C, pool of five; 200 µM; covalent
Readout name: NUDT7
Reply briefly: the number, and no unit.

See these solved cases before continuing.
O=C(CCl)NC1(c2ccc3c(c2)OCCO3)CCCC1 = 1
O=C(CCl)N1CCC(C(=O)N2CCCCC2)CC1 = 0
C=CC(=O)N1CC2CC3CC(C2)CC1C3 = 0
C=CC(=O)N1CCC(CS(C)(=O)=O)C1 (stereo not shown) = 0
O=C(O)C1Cc2ccccc2CN1C(=O)CCl (stereo not shown) = 0.21
CC(C)(C)c1ccc(C(=O)NNC(=O)CCl)cc1 = 0
N#Cc1cccc(CNC(=O)CCl)c1 = 0
O=C(CCl)Nc1nc(C2CC2)no1 = 0

Lab entry: NUDT7 (Homo sapiens) assay, compound C=CC(=O)N1Cc2ccccc2CC1c1nnc(CC)o1 (stereo not shown) , NUDT7 = 0

Lab entry: NUDT7 (Homo sapiens) assay, compound C=CC(=O)N1Cc2c(OC)ccc(OC)c2C(O)C1 (stereo not shown) , NUDT7 = 0

Lab entry: NUDT7 (Homo sapiens) assay, compound "N#Cc1cnn(-c2ccccc2)c1NC(=O)CCl" , NUDT7 = 0.16

Lab entry: NUDT7 (Homo sapiens) assay, compound "O=C(CCl)NNC(=O)c1cc2c(s1)CCCC2" , NUDT7 = 0.09

Lab entry: NUDT7 (Homo sapiens) assay, compound "Cl.O=C(CCl)N1CCN(CC(=O)N2CCOCC2)CC1" , NUDT7 = 0

Lab entry: NUDT7 (Homo sapiens) assay, compound "O=C(CCl)Nc1ccc(Cl)cc1Cl" , NUDT7 = 0.22

Lab entry: NUDT7 (Homo sapiens) assay, compound CC(NC(=O)CCl)c1ccccc1 (stereo not shown) , NUDT7 = 0.13

Lab entry: NUDT7 (Homo sapiens) assay, compound "O=C(CCl)N1CCN(C(=O)Nc2ccccc2)CC1" , NUDT7 = 0.07

Lab entry: NUDT7 (Homo sapiens) assay, compound "CNC(=O)C1CCN(C(=O)CCl)CC1" , NUDT7 = 0

Lab entry: NUDT7 (Homo sapiens) assay, compound "C=CC(=O)NC1CCN(c2ccc(C(F)(F)F)cn2)CC1" , NUDT7 = 0

Lab entry: NUDT7 (Homo sapiens) assay, compound "C=CC(=O)N1CCN(c2nccc3sccc23)CC1" , NUDT7 = 0

Lab entry: NUDT7 (Homo sapiens) assay, compound "C=CC(=O)N1CCCN(C(=O)Oc2ccccc2)CC1" , NUDT7 = 0

Lab entry: NUDT7 (Homo sapiens) assay, compound "C=CC(=O)N1CCC(C(=O)O)(c2ccccc2)CC1" , NUDT7 = 0

Lab entry: NUDT7 (Homo sapiens) assay, compound "Cc1ccccc1NC(=O)CCl" , NUDT7 = 0
